Values were extracted from ChEMBL document CHEMBL1122084.

EXPERIMENTAL TARGET: Glucocorticoid receptor (Rattus norvegicus) (UniProt P06536)
Sequence (P06536 whole entry): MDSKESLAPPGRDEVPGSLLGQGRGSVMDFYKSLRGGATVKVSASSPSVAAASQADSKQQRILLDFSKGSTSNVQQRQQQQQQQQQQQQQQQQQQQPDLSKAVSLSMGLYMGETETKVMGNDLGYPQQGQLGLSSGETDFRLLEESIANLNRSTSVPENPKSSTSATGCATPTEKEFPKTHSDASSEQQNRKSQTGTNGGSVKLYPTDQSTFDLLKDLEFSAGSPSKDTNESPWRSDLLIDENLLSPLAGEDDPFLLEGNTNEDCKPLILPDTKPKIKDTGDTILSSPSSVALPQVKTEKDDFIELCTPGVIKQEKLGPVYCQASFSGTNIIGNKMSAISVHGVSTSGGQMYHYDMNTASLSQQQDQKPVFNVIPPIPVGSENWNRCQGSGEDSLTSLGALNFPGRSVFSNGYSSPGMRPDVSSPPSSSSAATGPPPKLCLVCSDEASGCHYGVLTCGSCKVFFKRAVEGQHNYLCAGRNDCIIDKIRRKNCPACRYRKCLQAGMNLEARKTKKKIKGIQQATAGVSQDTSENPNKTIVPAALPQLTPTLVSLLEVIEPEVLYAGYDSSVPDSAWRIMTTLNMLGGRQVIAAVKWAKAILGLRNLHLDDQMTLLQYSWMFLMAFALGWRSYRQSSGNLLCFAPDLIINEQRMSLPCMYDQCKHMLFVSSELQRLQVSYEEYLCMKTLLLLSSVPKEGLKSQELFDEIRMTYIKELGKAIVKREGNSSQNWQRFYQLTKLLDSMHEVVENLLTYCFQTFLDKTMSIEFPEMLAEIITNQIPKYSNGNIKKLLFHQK
METHOD NOTES: Relative binding affinity for glucocorticoid receptor of rat thymus cytosol by displacement of [3H]dexamethasone compared to cortisol
ENDPOINT: Relative binding affinity

These recorded examples may help you get a feel for the data.
>>> df
                                   compound                   endpoint  observed
0  CCCCC(=O)OCC(=O)[C@@]1(O)CCC2C3CCC4=CC(=O)CCC4(C)C3C(O)CC21C (some centres not stated)  Relative binding affinity      0.32
1  CCCC(=O)O[C@]1(C(=O)CO)CC[C@H]2[C@@H]3CCC4=CC(=O)CC[C@]4(C)[C@H]3[C@@H](O)C[C@@]21C  Relative binding affinity      12.4
2  CCC(=O)OCC(=O)[C@@]1(OC(C)=O)CCC2C3CCC4=CC(=O)CCC4(C)C3C(O)CC21C (some centres not stated)  Relative binding affinity     0.093

I = CCCC(=O)OCC(=O)[C@@]1(OC(C)=O)CCC2C3CCC4=CC(=O)CCC4(C)C3C(O)CC21C (some centres not stated)
II = CCCCC(=O)O[C@]1(C(=O)COC(=O)CCC)CCC2C3CCC4=CC(=O)CCC4(C)C3C(O)CC21C (some centres not stated)
Q) Select the item with the higher value of Relative binding affinity from the options I and II listed. Lab log: write the label of the selected item as the result.
A) II
(II: 1.33, I: 0.152)

1 = CC(=O)O[C@]1(C(=O)CO)CCC2C3CCC4=CC(=O)CCC4(C)C3C(O)CC21C (some centres not stated)
2 = CCCCC(=O)O[C@]1(C(=O)CO)CCC2C3CCC4=CC(=O)CCC4(C)C3C(O)CC21C (some centres not stated)
3 = CC(=O)OCC(=O)[C@@]1(OC(C)=O)CCC2C3CCC4=CC(=O)CCC4(C)C3C(O)CC21C (some centres not stated)
Q) Ascending sort, Relative binding affinity. Reply with the item labels sorted in the order that was asked for.
A) 3, 1, 2

P = CC(=O)OCC(=O)[C@@]1(O)CC[C@H]2[C@@H]3CCC4=CC(=O)CC[C@]4(C)[C@H]3[C@@H](O)C[C@@]21C
Q = CCCCC(=O)OCC(=O)[C@@]1(OC(C)=O)CCC2C3CCC4=CC(=O)CCC4(C)C3C(O)CC21C (some centres not stated)
Q) Select the item with the higher value of Relative binding affinity from the options P and Q listed. Lab log: write the label of the selected item as the result.
A) Q
(Q: 0.272, P: 0.046)

a = CCCCC(=O)O[C@]1(C(=O)COC(=O)CC)CCC2C3CCC4=CC(=O)CCC4(C)C3C(O)CC21C (some centres not stated)
b = CCCCC(=O)O[C@]1(C(=O)COC(C)=O)CCC2C3CCC4=CC(=O)CCC4(C)C3C(O)CC21C (some centres not stated)
Q) Select the item with the higher value of Relative binding affinity from the options a and b listed. Lab log: write the label of the selected item as the result.
A) a
